All figures here come from patent US6905706B2.

Test: Effect of co-administered extracts on the pharmacokinetics of theophylline in rats
Conditions: male, Wistar, rat, in vivo, po, 240 mg/kg, T1/2 of Theophylline, Group 1 (water control); rats; calculated by mean concentrations
quantity: half-life

# compound, result
rows = [
    ("Cn1c(=O)c2[nH]cnc2n(C)c1=O [Theophylline, 1,3-dimethylxantin]", "4.66 h"),
]

###

Assay: Effect of co-administered extracts on the pharmacokinetics of theophylline in rats
Details: male, Wistar, rat, in vivo, po, AUC0-∞ of Theophylline, Group 3 (Jarsin 300 pretreatment); rats; calculated by mean concentrations

# molecule, AUC(0-inf) [µg·h/mL]
rows = [
    ("Cn1c(=O)c2[nH]cnc2n(C)c1=O [Theophylline, 1,3-dimethylxantin]", 208),
]

###

Test: Effect of co-administered extracts on the pharmacokinetics of theophylline in rats
Settings: male, Wistar, rat, in vivo, po, 240 mg/kg, MRT of Theophylline, Mean, Group 1 (water control); rats; mean of 6 series (column A)

# compound, MRT / h
measured = [
    ("Cn1c(=O)c2[nH]cnc2n(C)c1=O [Theophylline, 1,3-dimethylxantin]", 6.62),
]

###

Experiment: Effect of co-administered extracts on the pharmacokinetics of theophylline in rats
Settings: male, Wistar, rat, in vivo, po, 240 mg/kg, Cmax of Theophylline, Mean, Group 3 (Jarsin 300 pretreatment); rats; mean of 6 series (column A)
quantity: Cmax (ng/mL)

# molecule, quantity, unit spec, readout number
data = [
    ("Cn1c(=O)c2[nH]cnc2n(C)c1=O [Theophylline, 1,3-dimethylxantin]", "Cmax", "ng/mL", 43900),
]

###

Test: Effect of co-administered extracts on the pharmacokinetics of theophylline in rats
Conditions: male, Wistar, rat, in vivo, po, T1/2 of Theophylline, Mean, Group 2 (CRE pretreatment); rats; mean of 6 series (column A)
quantity: half-life

# compound, quantity, result
data = [
    ("Cn1c(=O)c2[nH]cnc2n(C)c1=O [Theophylline, 1,3-dimethylxantin]", "half-life", "2.81 h"),
]

###

Assay: Effect of co-administered extracts on the pharmacokinetics of theophylline in rats
Conditions: male, Wistar, rat, in vivo, Concentration of Theophylline in Rat Serum, Mean, Group 2 (CRE pretreatment 3 days); aminophylline 240 mg/kg p.o.; 30 min; mean n=6

# compound, concentration at 30 min / µg/mL
measured = [
    ("Cn1c(=O)c2[nH]cnc2n(C)c1=O [Theophylline, 1,3-dimethylxantin]", 138),
]

###

Assay: Effect of co-administered extracts on the pharmacokinetics of theophylline in rats
Settings: male, Wistar, rat, in vivo, 240 mg/kg, Concentration of Theophylline in Rat Serum, Group 1 (water control); aminophylline 240 mg/kg p.o.; 120 min; single rat
Method: Carpediol spissum (Batch No Ex 20404); Swedish Herbal Institute, Gothenburg, Sweden) as described above in Example 1. […] Dosage and Administration—An appropriate amount of herbal extract was dissolved in distilled water and given at 10:00-10:30 am by oral gavage. […] Blood samples from rats receiving the carrier only were also analyzed. […]

# molecule, concentration at 120 min (µg/mL)
records = [
    ("Cn1c(=O)c2[nH]cnc2n(C)c1=O [Theophylline, 1,3-dimethylxantin]", 96.3),
]

###

Experiment: Effect of co-administered extracts on the pharmacokinetics of theophylline in rats
Settings: male, Wistar, rat, in vivo, po, T1/2 of Theophylline, Group 3 (Jarsin 300 pretreatment); rats; calculated by mean concentrations
quantity: half-life (h)

# compound, unit spec, readout number
rows = [
    ("Cn1c(=O)c2[nH]cnc2n(C)c1=O [Theophylline, 1,3-dimethylxantin]", "h", 3.43),
]

###

Assay: Effect of co-administered extracts on the pharmacokinetics of theophylline in rats
Conditions: male, Wistar, rat, in vivo, 240 mg/kg, Level of theophylline in serum after 480 minutes, Group 1 (water control); rats

# compound, concentration at 480 min
records = [
    ("Cn1c(=O)c2[nH]cnc2n(C)c1=O [Theophylline, 1,3-dimethylxantin]", "~51 µg/mL"),
]

###

Assay: Effect of co-administered extracts on the pharmacokinetics of theophylline in rats
Conditions: male, Wistar, rat, in vivo, po, 240 mg/kg, AUC0-∞ of Theophylline, Mean, Group 1 (water control); rats; mean of 6 series
quantity: AUC(0-inf) (µg·h/mL)

# molecule, unit spec, readout number
rows = [
    ("Cn1c(=O)c2[nH]cnc2n(C)c1=O [Theophylline, 1,3-dimethylxantin]", "µg·h/mL", 1020),
]

###

Assay: Effect of co-administered extracts on the pharmacokinetics of theophylline in rats
Details: male, Wistar, rat, in vivo, po, AUC0-∞ of Theophylline, Mean, Group 3 (Jarsin 300 pretreatment); rats; mean of 6 series (column A)
quantity: AUC(0-inf) (µg·h/mL)

# compound, readout number
records = [
    ("Cn1c(=O)c2[nH]cnc2n(C)c1=O [Theophylline, 1,3-dimethylxantin]", 214),
]

###

Assay: Effect of co-administered extracts on the pharmacokinetics of theophylline in rats
Details: male, Wistar, rat, in vivo, Theophylline concentration in serum after 480 minutes, Group 3 (rats treated with Jarsin 300)

# compound, concentration at 480 min
data = [
    ("Cn1c(=O)c2[nH]cnc2n(C)c1=O [Theophylline, 1,3-dimethylxantin]", "~9.3 µg/mL"),
]

###

Test: Effect of co-administered extracts on the pharmacokinetics of theophylline in rats
Conditions: male, Wistar, rat, in vivo, 240 mg/kg, Concentration of Theophylline in Rat Serum, Mean, Group 1 (water control); aminophylline 240 mg/kg p.o.; 120 min; mean n=6
quantity: concentration at 120 min (µg/mL)

# molecule, quantity, readout number
records = [
    ("Cn1c(=O)c2[nH]cnc2n(C)c1=O [Theophylline, 1,3-dimethylxantin]", "concentration at 120 min", 73.4),
]

###

Assay: Effect of co-administered extracts on the pharmacokinetics of theophylline in rats
Conditions: male, Wistar, rat, in vivo, po, 240 mg/kg, AUC0-∞ of Theophylline, Group 1 (water control); rats; single series

# molecule, unit spec, AUC(0-inf)
rows = [
    ("Cn1c(=O)c2[nH]cnc2n(C)c1=O [Theophylline, 1,3-dimethylxantin]", "µg·h/mL", 1090),
]

###

Test: Effect of co-administered extracts on the pharmacokinetics of theophylline in rats
Conditions: male, Wistar, rat, in vivo, Cmax of Theophylline, Group 3 (Jarsin 300 pretreatment); rats; calculated by mean concentrations; 60 minutes
Procedure: Carpediol spissum (Batch No Ex 20404); Swedish Herbal Institute, Gothenburg, Sweden) as described above in Example 1. […] Dosage and Administration—An appropriate amount of herbal extract was dissolved in distilled water and given at 10:00-10:30 am by oral gavage. […] Blood samples from rats receiving the carrier only were also analyzed. […]
quantity: Cmax (ng/mL)

# molecule, readout number
records = [
    ("Cn1c(=O)c2[nH]cnc2n(C)c1=O [Theophylline, 1,3-dimethylxantin]", 41600),
]

###

Assay: Effect of co-administered extracts on the pharmacokinetics of theophylline in rats
Details: male, Wistar, rat, in vivo, po, 240 mg/kg, AUC0-∞ of Theophylline, Mean, Group 1 (water control); rats; mean of 6 series (column A)
quantity: AUC(0-inf) (µg·h/mL)

# compound, quantity, readout number
data = [
    ("Cn1c(=O)c2[nH]cnc2n(C)c1=O [Theophylline, 1,3-dimethylxantin]", "AUC(0-inf)", 1020),
]

###

Experiment: Effect of co-administered extracts on the pharmacokinetics of theophylline in rats
Settings: male, Wistar, rat, in vivo, po, MRT of Theophylline, Mean, Group 3 (Jarsin 300 pretreatment); rats; mean of 6 series (column A)

# molecule, MRT
data = [
    ("Cn1c(=O)c2[nH]cnc2n(C)c1=O [Theophylline, 1,3-dimethylxantin]", "5.44 h"),
]

###

Test: Effect of co-administered extracts on the pharmacokinetics of theophylline in rats
Settings: male, Wistar, rat, in vivo, Concentration of Theophylline in Rat Serum, Mean, Group 3 (Jarsin 300 pretreatment 3 days); aminophylline 240 mg/kg p.o.; 120 min; mean n=6

# compound, concentration at 120 min
rows = [
    ("Cn1c(=O)c2[nH]cnc2n(C)c1=O [Theophylline, 1,3-dimethylxantin]", "31100 ng/mL"),
]

###

Test: Effect of co-administered extracts on the pharmacokinetics of theophylline in rats
Conditions: male, Wistar, rat, in vivo, po, 240 mg/kg, AUC0-∞ of Theophylline, Mean, Group 2 (CRE pretreatment); rats; mean of 6 series (column A)

# compound, AUC(0-inf), µg·h/mL
data = [
    ("Cn1c(=O)c2[nH]cnc2n(C)c1=O [Theophylline, 1,3-dimethylxantin]", 920),
]

###

Test: Effect of co-administered extracts on the pharmacokinetics of theophylline in rats
Conditions: male, Wistar, rat, in vivo, po, 240 mg/kg, MRT of Theophylline, Mean, Group 2 (CRE pretreatment); rats; mean of 6 series (column A)

# compound, MRT
measured = [
    ("Cn1c(=O)c2[nH]cnc2n(C)c1=O [Theophylline, 1,3-dimethylxantin]", "4.45 h"),
]
